TARGET: Interleukin-8 (IL8, CXCL8), C-terminal His-tagged (Homo sapiens, UniProt P10145 SEQ:1-72)
Sequence (P10145 28-99): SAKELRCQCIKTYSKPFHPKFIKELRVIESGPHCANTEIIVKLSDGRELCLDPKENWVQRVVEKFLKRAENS
TEST PROTOCOL: flow; bead-immobilized IL8, 37 C
STUDY CONDITIONS: tags: C-terminal 6xHis (Sino Biological); label: Alexa Fluor 647
METRIC NAME: Kd
Quote the value and follow it with the unit of measurement.

Query: Returns the measured Kd for the input binder. Input: UGACUGCGGUCGCAAGUUACGGAUUUGCCGCCCCGU (ssRNA, 2'-F G, 2'-OMe A/C/U, 5' C6NH2, 3' idT) [Aptamer 20]
Reply: 15 nM

Source: patent US20210230599
